Each recorded value in this set is attributed to patent US20190240225A1.

- Test system: KMS11
- method notes: MTT cell viability assay, myeloma cell line
- Assay type: cell-based, human
- conditions used: single agent, read-out: IC50
- Protocol: Cell lines: Human myeloma cell lines (HMCLs) were derived from primary myeloma cells cultured in RPMI 1640 medium supplemented with 5% fetal calf serum from and 3 ng/mL recombinant IL-6 for IL-6 dependent cell lines. HMCLs are representative of phenotypic and genomic heterogeneity and the variability in patient's response to therapy. MTT assay: Cell viability is measured using MTT (3-(4,5-dimethylthiazol-2-yl)-2,5-diphenyltetrazolium bromide) colorimetric survival assay. […]
measured attribute: pIC50
Numbers only, as −log10 of the molar value.

For the compound Cc1c(-c2c(-c3ccc(F)o3)sc3ncnc(O[C@H](Cc4ccccc4OCc4ccnn4CC(F)(F)F)C(=O)O)c23)ccc(OCCN2CCN(C)CC2)c1Cl , what pIC50 is on record?
7.36

====

- Tested on: L363
- method notes: MTT cell viability assay, myeloma cell line
- Assay type: cell-based, human
- conditions used: + 1 μM Compound 1, HCl, read-out: IC50 of Compound 2 in the presence of 1 μM of Compound 1, HCl
measured attribute: IC50 (nM)
Answers are plain numbers, in nM.

Item: Cc1c(-c2c(-c3ccc(F)o3)sc3ncnc(O[C@H](Cc4ccccc4OCc4ccnn4CC(F)(F)F)C(=O)O)c23)ccc(OCCN2CCN(C)CC2)c1Cl [Compound 2] Test system: L363 Read-out: IC50 Value: ?
3.4

====

- Tested on: EOL-1
- method notes: CellTiterGlo viability, AML cell line
- Type: cell-based
- conditions used: single agent, 3 days
measured attribute: pIC50
Numbers only, as −log10 of the molar value.

Which value of pIC50 has been reported for COc1ccccc1-c1nccc(COc2ccccc2C[C@@H](Oc2ncnc3sc(-c4ccc(F)cc4)c(-c4ccc(OCCN5CCN(C)CC5)c(Cl)c4C)c23)C(=O)O)n1 [Compound 3] in the records?
9.00

====

- Test system: KG1a
- method notes: CellTiterGlo viability, AML cell line
- Assay type: cell-based
- conditions used: single agent, 3 days
measured attribute: pIC50
Answers are plain numbers, as −log10 of the molar value.

Find the recorded pIC50 belonging to COc1ccccc1-c1nccc(COc2ccccc2C[C@@H](Oc2ncnc3sc(-c4ccc(F)cc4)c(-c4ccc(OCCN5CCN(C)CC5)c(Cl)c4C)c23)C(=O)O)n1 [Compound 3] and report it.
5.70

====

Can you tell me IC50 for the items I'm about to list?
- Tested on: MOLM-13
- method notes: CellTiterGlo viability, AML cell line
- Assay type: cell-based
- conditions used: single agent, 3 days
Give bare numbers, in nM.

compound="COc1ccccc1-c1nccc(COc2ccccc2C[C@@H](Oc2ncnc3sc(-c4ccc(F)cc4)c(-c4ccc(OCCN5CCN(C)CC5)c(Cl)c4C)c23)C(=O)O)n1 [Compound 3]" measured_value=2

Attention now shifts to the item below.
Please tell me: IC50 of Cc1c(N(C(=O)c2cc(-c3cc(Cl)ccc3C(=O)N3Cc4ccccc4C[C@H]3CN3CCOCC3)n(C)c2C)c2ccc(O)cc2)cc(C#N)n1C.Cl [Compound 4, HCl] , system MOLM-13?
12

====

- Test system: J45.01
- method notes: CellTiterGlo viability, T-ALL cell line
- Type: cell-based
- conditions used: single agent, 48 h
measured attribute: IC50 (µM)
Give bare numbers, in µM.

compound=COc1ccccc1-c1nccc(COc2ccccc2C[C@@H](Oc2ncnc3sc(-c4ccc(F)cc4)c(-c4ccc(OCCN5CCN(C)CC5)c(Cl)c4C)c23)C(=O)O)n1 measured_value=0.029

Entry Cl.O=C(c1cc(-c2cc3c(cc2C(=O)N2Cc4ccccc4C[C@H]2CN2CCOCC2)OCO3)n2c1CCCC2)N(c1ccccc1)c1ccc(O)cc1 [Compound 1, HCl] : reported IC50 = ?
9
